Quick reference: hERG current change (%, negative = inhibition) at 10uM of the listed items.
TARGET OR SYSTEM: human ether-à-go-go-related gene (hERG) potassium channel (human);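 further: peak tail current of the secondary pulse compared with the same well before compound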
ASSAY COMMENT: primary screen, population patch clamp on CHO cells stably expressing hERG; higher = less effect of the substance
Among all 310,000 compounds or so, about 14,000 (4.5%) showed an effect of 50% or more. The effect is printed as a negative number. The sample as a whole holds a higher share of strong results than the screen did.
State the answer as a number, implicitly in %.

>>> experimental_result("O=C(c1ccc(F)cc1)N1CCC2(CC1)NCCc1[nH]cnc12")
4.43
>>> experimental_result("CN(CC(=O)Nc1ccc(S(=O)(=O)N2CCCC2)cc1)Cc1c(F)cccc1Cl")
-7.41
>>> experimental_result("Cc1ccc(C(=O)N2CCC3(CC2)NCCc2[nH]cnc23)cc1")
-53.9
>>> experimental_result("COc1cccc(CN(C)CC(=O)NCc2ccccc2Cl)c1OC")
-7.66
>>> experimental_result("CC1CCC2(CC1)NC(=O)N(CC(=O)N1CCN(C(=O)c3cccs3)CC1)C2=O (stereo not shown)")
-9.44
>>> experimental_result("Cc1ccccc1C1c2[nH]c3ccccc3c2CCN1C(=O)c1ccc(=O)n(C)n1 (stereo not shown)")
-10.6
>>> experimental_result("CC(C)(C)c1ccc(C(=O)N2CCC3(CC2)NCCc2[nH]cnc23)cc1")
-8.51
>>> experimental_result("Cc1ccc2c(CC(=O)OC(C)C(=O)Nc3ncc(Cl)cc3Cl)coc2c1 (stereo not shown)")
-28.2
>>> experimental_result("CCOc1ccc(C(=O)N2CCC3(CC2)NCCc2[nH]cnc23)cc1OCC")
22.6

# ---- query molecule ----
stdin: So what does the record say about hERG current change (%, negative = inhibition) at 10uM for `CCOc1ccc(C(=O)N2CCC3(CC2)NCCc2[nH]cnc23)cc1` ?
stdout: -70.1

* * *

TARGET OR SYSTEM: human ether-à-go-go-related gene (hERG) potassium channel (human, UniProt Q12809);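 further: peak tail current of the secondary pulse compared with the same well before compound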
Sequence (Q12809 whole entry, looked up): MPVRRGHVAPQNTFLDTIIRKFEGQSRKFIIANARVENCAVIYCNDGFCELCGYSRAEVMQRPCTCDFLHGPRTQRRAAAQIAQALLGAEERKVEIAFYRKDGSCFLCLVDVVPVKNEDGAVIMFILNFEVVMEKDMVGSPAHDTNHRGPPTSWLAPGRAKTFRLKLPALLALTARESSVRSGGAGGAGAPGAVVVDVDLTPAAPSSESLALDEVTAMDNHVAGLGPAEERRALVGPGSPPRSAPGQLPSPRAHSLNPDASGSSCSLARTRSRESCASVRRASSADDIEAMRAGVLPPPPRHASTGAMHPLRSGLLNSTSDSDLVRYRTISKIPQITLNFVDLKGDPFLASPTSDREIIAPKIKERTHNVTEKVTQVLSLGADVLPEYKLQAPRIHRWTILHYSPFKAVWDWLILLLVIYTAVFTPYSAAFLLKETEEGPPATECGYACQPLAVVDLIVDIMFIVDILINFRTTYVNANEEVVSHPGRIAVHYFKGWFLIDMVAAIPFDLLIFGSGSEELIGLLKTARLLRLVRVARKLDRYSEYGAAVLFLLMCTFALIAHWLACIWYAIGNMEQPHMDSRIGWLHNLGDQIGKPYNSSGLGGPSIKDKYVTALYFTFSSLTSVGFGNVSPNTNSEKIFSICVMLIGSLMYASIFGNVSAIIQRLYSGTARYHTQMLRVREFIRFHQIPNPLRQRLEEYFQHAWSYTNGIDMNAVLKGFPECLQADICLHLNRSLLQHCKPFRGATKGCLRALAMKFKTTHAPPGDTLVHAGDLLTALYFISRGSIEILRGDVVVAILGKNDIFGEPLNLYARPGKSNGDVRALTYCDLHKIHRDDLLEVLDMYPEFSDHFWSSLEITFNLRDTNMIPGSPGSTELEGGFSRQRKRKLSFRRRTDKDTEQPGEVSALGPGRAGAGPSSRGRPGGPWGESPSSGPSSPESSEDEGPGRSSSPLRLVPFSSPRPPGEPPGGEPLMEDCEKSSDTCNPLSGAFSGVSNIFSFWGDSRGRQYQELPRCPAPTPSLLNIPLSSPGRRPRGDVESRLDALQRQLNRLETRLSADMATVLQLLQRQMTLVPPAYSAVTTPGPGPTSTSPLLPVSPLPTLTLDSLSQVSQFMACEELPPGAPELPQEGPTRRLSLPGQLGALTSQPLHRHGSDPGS
ASSAY COMMENT: primary screen, population patch clamp on CHO cells stably expressing hERG; higher = less effect of the substance
Screen size: about 310,000 compounds; about 14,000 (4.5%) showed an effect of 50% or more. The effect is printed as a negative number. Many of the other results were omitted from the sample, so strong results are more common in it than they were.
TEST READOUT: hERG current change (%, negative = inhibition) at 10uM (%)
State the answer as a number, implicitly in %.

Below are worked cases with known answers.
>>> experimental_result("O=S(=O)(c1ccccc1)c1cnc(-c2ccccc2)nc1N1CCCC1")
41.8
>>> experimental_result("CCc1ccc(C(=O)OCC(=O)c2c(N)n(CC(C)C)c(=O)n(C)c2=O)cc1")
-0.249
>>> experimental_result("CC(C)Cn1c(N)c(C(=O)CSc2nnnn2C)c(=O)n(C)c1=O")
4.91

stdin: So what does the record say about hERG current change (%, negative = inhibition) at 10uM for `Cn1c(N)c(C(=O)COC(=O)c2ccc([N+](=O)[O-])o2)c(=O)n(C)c1=O` ?
stdout: -34.6

stdin: So what does the record say about hERG current change (%, negative = inhibition) at 10uM for `CCOC(=O)c1sc2nc(N3CCCC3)c3c(c2c1N)CC(C)(C)OC3` ?
stdout: 10.4

stdin: So what does the record say about hERG current change (%, negative = inhibition) at 10uM for CCc1cc(=O)oc2cc(C)cc(OC(C)C(=O)NCc3ccncc3)c12 (stereo not shown) ?
stdout: -56.8

These data points were gathered from paper PMC4336329.
